Reference source for all entries: PubChem BioAssay AID1419

# measurement notes: blockers of an Epstein-Barr virus protein-peptide interaction – biochemical, fluorescence polarization, dose response (AID 1419)
# recorded conditions: cell-free protein-peptide binding, 2 h
Calls of active or inactive are those of the source. No rule for the calls is given here.
Outcomes: active, inactive

compound_structure_string=Nc1ccc(N)c(C(=O)O)c1 label_class=active
compound_structure_string=Cc1ccc(NC(=O)/C(C#N)=C(\N)C(Cl)(Cl)Cl)nc1 label_class=active
compound_structure_string=Nc1cc(C(=O)O)c(N)c2c1C(=O)c1ccccc1C2=O label_class=active
compound_structure_string=O=C1N=c2ccccc2=C1c1sc(Nc2ccc(O)cc2)nc1O label_class=active
compound_structure_string=O=c1[nH]c(=S)n(-c2ccc(Br)cc2)c(O)c1C=Nc1ccc(N2CCOCC2)cc1 label_class=active
compound_structure_string=CN1/C(=C/C=C(C#N)C#N)C(C)(C)c2ccccc21 label_class=inactive
compound_structure_string=O=C(NNC1=Nc2cccc3cccc1c23)c1ccc(Br)cc1 label_class=inactive
compound_structure_string=C=CCn1c(CSc2nc3ccccc3s2)nnc1SCC(=O)NCc1ccco1 label_class=inactive
compound_structure_string=CCn1cc(C(=O)NCc2ccccn2)c(=O)c2cc(S(=O)(=O)N3CCCCC3)ccc21 label_class=active
